molecular target: Kir2.2 (Homo sapiens, UniProt Q14500); test: Tl+ flux selectivity assay, Kir2.2; conditions: read-out: Kir2.2 IC50 (Tl+ flux)
Sequence (Q14500 whole entry): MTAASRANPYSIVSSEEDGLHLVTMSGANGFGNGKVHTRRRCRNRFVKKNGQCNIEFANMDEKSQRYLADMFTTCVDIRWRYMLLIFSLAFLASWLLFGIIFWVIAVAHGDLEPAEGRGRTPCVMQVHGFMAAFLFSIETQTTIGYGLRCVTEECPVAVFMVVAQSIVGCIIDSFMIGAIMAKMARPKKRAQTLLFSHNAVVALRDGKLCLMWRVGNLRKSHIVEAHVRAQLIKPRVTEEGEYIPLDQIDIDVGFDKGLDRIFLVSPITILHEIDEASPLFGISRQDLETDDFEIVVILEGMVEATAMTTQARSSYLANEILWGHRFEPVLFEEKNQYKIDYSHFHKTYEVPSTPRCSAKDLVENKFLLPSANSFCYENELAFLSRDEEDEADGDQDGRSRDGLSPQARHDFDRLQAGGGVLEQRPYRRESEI
pIC50: −log10 of the molar value.
READOUT_LABEL: pIC50

What does the record list as pIC50 for Oc1c(CN2CCC(Cc3ccccc3)CC2)cc(Cl)c2cccnc12 [VU714] ? < 4.52

###

Target: Kir7.1 (Homo sapiens, UniProt O60928, M125R)
Sequence (O60928 1-360 M125R): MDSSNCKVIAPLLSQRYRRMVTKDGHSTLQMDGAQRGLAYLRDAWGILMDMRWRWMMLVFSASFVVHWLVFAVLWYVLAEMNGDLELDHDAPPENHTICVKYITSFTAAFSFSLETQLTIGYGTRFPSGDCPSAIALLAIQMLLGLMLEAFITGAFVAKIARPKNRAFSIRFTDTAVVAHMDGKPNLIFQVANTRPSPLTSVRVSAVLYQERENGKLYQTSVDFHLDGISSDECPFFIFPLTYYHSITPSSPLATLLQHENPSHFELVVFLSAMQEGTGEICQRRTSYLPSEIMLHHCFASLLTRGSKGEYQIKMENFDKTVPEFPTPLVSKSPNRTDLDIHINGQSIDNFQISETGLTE
Assay: Whole-cell patch clamp electrophysiology, Kir7.1
Assay type: cell-based
Conditions: read-out: Kir7.1 IC50 (Patch clamp), -120 mV
READOUT_LABEL: IC50 (nM)
One number for each entry, in nM.

Reported IC50 for Kir7.1 (Homo sapiens, UniProt O60928, M125R), given Oc1c(CN2CCC(Cc3ccccc3)CC2)cc(Cl)c2cccnc12 [VU714] ? 1500

###

Biological target: Kir2.1 (Homo sapiens)
Sequence (P63252 1-427): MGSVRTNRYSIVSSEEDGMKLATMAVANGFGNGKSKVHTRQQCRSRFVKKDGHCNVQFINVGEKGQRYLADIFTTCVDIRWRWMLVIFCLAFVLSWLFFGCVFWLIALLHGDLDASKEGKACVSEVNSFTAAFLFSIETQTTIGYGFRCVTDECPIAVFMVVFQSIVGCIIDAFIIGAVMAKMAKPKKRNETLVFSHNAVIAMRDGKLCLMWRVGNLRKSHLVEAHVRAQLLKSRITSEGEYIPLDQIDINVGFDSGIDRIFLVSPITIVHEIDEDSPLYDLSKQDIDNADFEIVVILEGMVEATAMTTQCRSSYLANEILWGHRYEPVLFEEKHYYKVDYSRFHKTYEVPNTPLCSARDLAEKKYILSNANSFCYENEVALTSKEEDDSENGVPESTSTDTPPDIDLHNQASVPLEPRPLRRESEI
Assay: Tl+ flux selectivity assay, Kir2.1
Format: cell-based
Settings: read-out: Kir2.1 IC50 (Tl+ flux)
pIC50: −log10 of the molar value.
READOUT_LABEL: pIC50

What measured pIC50 goes with "Oc1c(CN2CCC(Cc3ccccc3)CC2)cc(Cl)c2cccnc12" ? < 4.52

###

experiment: Protein binding in plasma; settings: mouse
READOUT_LABEL: fraction unbound
One number for each entry.

[[record]]
smi = "CC(C)(C)OC(=O)NC1CCN(Cc2cc(Cl)c3cccnc3c2O)CC1"
test_value = 0.056


From here, focus on the item given below.
Requested field: fraction unbound. Item: "CC(C)OC(=O)NC1CCN(Cc2cc(Cl)c3cccnc3c2O)CC1" 0.114

###

target: Kir3.1/3.2 (Homo sapiens, UniProt P48051+P48549); test: Tl+ flux selectivity assay, Kir3.1/3.2; assay type: cell-based; conditions: read-out: Kir3.1/3.2 IC50 (Tl+ flux)
Sequence (P48549 whole entry): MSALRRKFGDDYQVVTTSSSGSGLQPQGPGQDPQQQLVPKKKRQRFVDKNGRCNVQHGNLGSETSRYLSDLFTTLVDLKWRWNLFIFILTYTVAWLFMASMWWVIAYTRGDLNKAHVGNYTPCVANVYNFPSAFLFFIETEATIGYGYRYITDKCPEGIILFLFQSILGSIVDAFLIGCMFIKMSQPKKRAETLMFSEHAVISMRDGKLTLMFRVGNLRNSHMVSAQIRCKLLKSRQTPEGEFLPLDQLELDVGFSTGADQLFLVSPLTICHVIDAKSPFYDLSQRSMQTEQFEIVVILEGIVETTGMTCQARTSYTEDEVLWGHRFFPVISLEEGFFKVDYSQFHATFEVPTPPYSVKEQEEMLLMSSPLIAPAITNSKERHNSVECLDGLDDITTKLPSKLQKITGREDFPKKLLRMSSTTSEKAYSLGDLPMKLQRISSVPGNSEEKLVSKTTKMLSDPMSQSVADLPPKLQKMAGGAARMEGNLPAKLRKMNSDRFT
Sequence (P48051 whole entry): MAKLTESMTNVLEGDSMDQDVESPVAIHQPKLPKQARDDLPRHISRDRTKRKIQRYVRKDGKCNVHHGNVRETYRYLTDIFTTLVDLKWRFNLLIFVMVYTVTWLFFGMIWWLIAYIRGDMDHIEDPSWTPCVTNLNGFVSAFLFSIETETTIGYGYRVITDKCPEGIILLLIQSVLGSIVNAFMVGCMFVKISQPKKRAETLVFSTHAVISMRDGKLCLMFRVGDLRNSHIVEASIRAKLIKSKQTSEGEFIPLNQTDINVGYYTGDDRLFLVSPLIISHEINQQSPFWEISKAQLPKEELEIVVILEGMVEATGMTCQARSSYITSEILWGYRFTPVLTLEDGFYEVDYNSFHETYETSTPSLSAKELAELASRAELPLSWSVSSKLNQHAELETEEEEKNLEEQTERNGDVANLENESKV
READOUT_LABEL: IC50

Write down the reported IC50 of "Oc1c(CN2CCC(Cc3ccccc3)CC2)cc(Cl)c2cccnc12" , test system: Kir3.1/3.2 (Homo sapiens, UniProt P48051+P48549). > 30 µM

All values here come from paper PMC5131535.
